Recorded values, source paper PMC9182199.

system: Bacillus α-glucosidase; experiment: Glycosidase inhibition, laboratory 2: Bacillus α-glucosidase; assay type: biochemical; settings: water
A collection of compounds and their measured % inhibition at ~400 μM
property_label: % inhibition at ~400 μM (%)

INSERT INTO assay_data (smiles_text, property_label, measured_result) VALUES
  ('CC1(C)OB(c2ccccc2NC(=O)c2cc(Cl)c(Cl)c(Cl)c2Cl)OC1(C)C', '% inhibition at ~400 μM', 14.4),
  ('CC1(C)OB(c2cccc(CN3C(=O)c4c(Cl)c(Cl)c(Cl)c(Cl)c4C3=O)c2)OC1(C)C', '% inhibition at ~400 μM', 31.7),
  ('CC1(C)OB(c2ccccc2CNC(=O)c2cc(Cl)c(Cl)c(Cl)c2Cl)OC1(C)C', '% inhibition at ~400 μM', 23.7),
  ('CC1(C)OB(c2cccc(NC(=O)c3cc(Cl)c(Cl)c(Cl)c3Cl)c2)OC1(C)C', '% inhibition at ~400 μM', 54.1),
  ('CC1(C)OB(c2ccc(NC(=O)c3cc(Cl)c(Cl)c(Cl)c3Cl)cc2)OC1(C)C', '% inhibition at ~400 μM', 20),
  ('CC1(C)OB(c2ccc(CN3C(=O)c4c(Cl)c(Cl)c(Cl)c(Cl)c4C3=O)cc2)OC1(C)C', '% inhibition at ~400 μM', 17.9);

----------
tested on: A2780; assay: MTT cell growth inhibition: A2780; type: cell-based; settings: Homo sapiens; A2780 ovarian carcinoma; 25 µM; 72 h; MTT; read-out: Percentage (%) Cell Growth Inhibition in response to 25 µM of Drug
Documented inhibition at 25 µM across a set of compounds
property_label: inhibition at 25 µM (%)

INSERT INTO measurements (compound, property_label, sign_qualifier, measured_result) VALUES
  ('CC1(C)OB(c2ccc(CN3C(=O)c4c(Cl)c(Cl)c(Cl)c(Cl)c4C3=O)cc2)OC1(C)C', 'inhibition at 25 µM', '>', 100),
  ('CC1(C)OB(c2cccc(CN3C(=O)c4c(Cl)c(Cl)c(Cl)c(Cl)c4C3=O)c2)OC1(C)C', 'inhibition at 25 µM', '=', 70),
  ('CC1(C)OB(c2ccccc2NC(=O)c2cc(Cl)c(Cl)c(Cl)c2Cl)OC1(C)C', 'inhibition at 25 µM', '=', 97),
  ('CC1(C)OB(c2cccc(NC(=O)c3cc(Cl)c(Cl)c(Cl)c3Cl)c2)OC1(C)C', 'inhibition at 25 µM', '=', 49),
  ('CC1(C)OB(c2ccccc2CNC(=O)c2cc(Cl)c(Cl)c(Cl)c2Cl)OC1(C)C', 'inhibition at 25 µM', '=', 19),
  ('N[C@@H](Cc1ccc(B(O)O)cc1)C(=O)O [BPA, 4-borono-L-phenylalanine, reference compound]', 'inhibition at 25 µM', '=', 4),
  ('CC1(C)OB(c2ccc(NC(=O)c3cc(Cl)c(Cl)c(Cl)c3Cl)cc2)OC1(C)C', 'inhibition at 25 µM', '=', 50);

----------
tested on: bovine kidney N-acetyl-β-glucosaminidase; experiment: Glycosidase inhibition, laboratory 2: N-acetyl-β-glucosaminidase; assay type: biochemical; conditions: water
property_label: % inhibition at ~400 μM (%)

INSERT INTO assay_data (smiles_text, measured_result) VALUES
  ('CC1(C)OB(c2ccc(NC(=O)c3cc(Cl)c(Cl)c(Cl)c3Cl)cc2)OC1(C)C', 20.6),
  ('CC1(C)OB(c2ccccc2NC(=O)c2cc(Cl)c(Cl)c(Cl)c2Cl)OC1(C)C', 28.8),
  ('CC1(C)OB(c2ccccc2CNC(=O)c2cc(Cl)c(Cl)c(Cl)c2Cl)OC1(C)C', 28.3),
  ('CC1(C)OB(c2cccc(NC(=O)c3cc(Cl)c(Cl)c(Cl)c3Cl)c2)OC1(C)C', 30.6),
  ('CC1(C)OB(c2cccc(CN3C(=O)c4c(Cl)c(Cl)c(Cl)c(Cl)c4C3=O)c2)OC1(C)C', 17.1),
  ('CC1(C)OB(c2ccc(CN3C(=O)c4c(Cl)c(Cl)c(Cl)c(Cl)c4C3=O)cc2)OC1(C)C', 8.3);
